# study_target: human mGluR2 (Homo sapiens)
# Construct: chimeric mGluR2/CaR construct comprising the extracellular and transmembrane domains of human mGluR2 and the intracellular domain of the human calcium receptor, fused
# Sequence (Q14416 19-819 limits assumed): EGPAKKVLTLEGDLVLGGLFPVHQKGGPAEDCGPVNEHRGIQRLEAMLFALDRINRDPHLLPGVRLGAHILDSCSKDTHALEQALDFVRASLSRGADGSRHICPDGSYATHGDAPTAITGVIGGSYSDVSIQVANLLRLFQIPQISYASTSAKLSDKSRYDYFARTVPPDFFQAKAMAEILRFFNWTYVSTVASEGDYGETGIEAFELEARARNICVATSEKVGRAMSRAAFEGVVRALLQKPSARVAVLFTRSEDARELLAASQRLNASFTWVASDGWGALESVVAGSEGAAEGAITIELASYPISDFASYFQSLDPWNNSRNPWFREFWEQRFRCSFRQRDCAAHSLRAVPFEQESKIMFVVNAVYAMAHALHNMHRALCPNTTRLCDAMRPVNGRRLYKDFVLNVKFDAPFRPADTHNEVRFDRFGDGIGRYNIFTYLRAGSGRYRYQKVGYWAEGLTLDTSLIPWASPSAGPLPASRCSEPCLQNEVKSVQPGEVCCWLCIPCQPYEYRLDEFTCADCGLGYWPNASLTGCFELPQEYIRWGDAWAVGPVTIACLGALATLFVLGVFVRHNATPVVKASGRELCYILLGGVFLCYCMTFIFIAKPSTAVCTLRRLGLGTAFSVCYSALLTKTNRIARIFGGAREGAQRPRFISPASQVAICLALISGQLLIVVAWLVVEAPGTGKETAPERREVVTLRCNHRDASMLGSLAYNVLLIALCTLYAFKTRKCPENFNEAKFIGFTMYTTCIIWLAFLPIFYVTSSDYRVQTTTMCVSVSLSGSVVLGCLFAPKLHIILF
# measurement_notes: mGluR2 potentiator assays described herein (FLIPR calcium mobilization in HEK 293 cells expressing chimeric mGluR2/CaR, or [35S]-GTPγS binding with CHO cell membranes)
# recorded_conditions: assay not specified (FLIPR or [35S]-GTPγS); allosteric activator/potentiator activity at mGluR2
measured_endpoint: EC50 (nM)
Dear colleague, please return just the value in nM, with no unit written.

Problem: Returns the measured EC50 for the input compound. Input: Cc1cc(-c2nc(CN3CCN(C=O)CC3)no2)cc2c1C(=O)N(Cc1ccc(OC(F)(F)F)cc1)C2
Solution: 230

Problem: Lookup Cc1cc(CC2CCN(Cc3ccc(F)cc3)CC2)cc2c1C(=O)N(CC1CCCCC1)C2
Solution: 28

Problem: Same again, this time with O=C1c2c(Cl)cc(-c3noc(CN4CCC(F)CC4)n3)cc2CN1Cc1ccc(OC(F)(F)F)cc1
Solution: 75

Problem: Field entry: Cc1cc(CC2CCN(Cc3ccccc3F)CC2)cc2c1C(=O)N(CC1CC1)C2
Solution: 84
